Test system: PC-3 prostate
Assay: NCI tumour cell line growth inhibition, 48 h
Quantity name: TGI (µM)
Numeric answer only, unit µM assumed.

Nc1ccc(Oc2ccc(C34CC5CC(C3)CC(c3ccc(Oc6ccc(N)cc6C(F)(F)F)cc3)(C5)C4)cc2)c(C(F)(F)F)c1    29.2

Attention now shifts to the item below.
Input line: // TGI lookup, key: Cc1[nH]c2ccccc2c1CO
Output line: 43.7

* * *

Test system: SNB-75 CNS
Experiment: NCI tumour cell line growth inhibition, 48 h
Each record here notes measured TGI.

COc1cc2c(cc1OC)[C@@H]1C(=O)c3ccc4c(c3O[C@@H]1CO2)C[C@H](C(C)C)O4    23.8 µM
COc1ccc(OC)c(N2CC(O)=C(c3nc4ccccc4s3)C2=N)c1    > 100 µM
CCCCCN(CCCCC)CCC[C@@H](C)[C@H]1CC[C@H]2[C@@H]3[C@H](OCCCN)C[C@@H]4C[C@H](OCCCN)CC[C@]4(C)[C@H]3C[C@H](OCCCN)[C@]12C    22.8 µM
Cc1ccc(NC(=O)C2C3C=CC(O3)C2C(=O)O)cc1 (configuration not stated)    > 100 µM
Cn1c(=O)c2c(nc3n2CCCC(=O)N3CCCCl)n(C)c1=O    > 100 µM
O=S(=O)(CC(Cl)c1ccccc1)c1nc2ccccc2s1 (configuration not stated)    27.8 µM

Input line: // TGI lookup, key: CC1(C)/C(=N\O)C2(OS(=O)(=O)C(F)(F)F)CCC1C2 (configuration not stated)
Output line: > 100 µM

Input line: // TGI lookup, key: CCc1cccc(C(C)C)c1NC(=O)/C(=N\NC(N)=O)C(C(=O)OC)c1cnc2ccccc2n1 (configuration not stated)
Output line: > 100 µM

Input line: // TGI lookup, key: CC(=O)N1c2ccccc2N(C(C)=O)C1c1ccc(C2N(C(C)=O)c3ccccc3N2C(C)=O)[nH]1
Output line: > 100 µM

Input line: // TGI lookup, key: O=C(Nc1ccc(I)cc1F)c1cc(Br)ccc1O
Output line: 2.23 µM

Input line: // TGI lookup, key: COc1cccc([C@@H]2C/C(=N\NC(=O)C(=O)N[C@@H](C)c3ccccc3)c3ccccc3N2)c1
Output line: > 100 µM

Input line: // TGI lookup, key: Nc1nc(Sc2ccc([N+](=O)[O-])c3nonc23)c2ncn(C3OC(CO)C(O)C3O)c2n1 (configuration not stated)
Output line: > 100 µM

* * *

System: OVCAR-5 ovarian
Assay: NCI tumour cell line growth inhibition, 48 h
Each record here notes measured TGI.

CC(C)CC(=O)CC(C)[C@]1(CCCOCc2ccccc2)C(=O)N2CCC3(C[C@@]24CCC[C@H]41)OCCO3 (stereo partly drawn)    > 10 µM
Cc1ccc(/C(=N/NS(=O)(=O)c2cc(C)c(Cl)cc2Cl)Sc2cc(Cl)c(C)cc2S(N)(=O)=O)cc1    > 100 µM

Input line: // TGI lookup, key: O=C1NC(=O)C(CCC(=O)c2cccc3ccccc23)C(=O)N1
Output line: > 100 µM

* * *

System: SK-MEL-5 melanoma
Assay: NCI tumour cell line growth inhibition, 48 h
Each record here notes measured TGI.

NC(=O)N/N=C\CC(O)(C(F)(F)Cl)C(F)(F)Cl    > 10 µM
CC(=O)OCC12CC(CC1OC(C)=O)c1ccccc12 (stereo not given)    > 100 µM
CCOC(=O)c1ccc(N2NC(=O)/C(=C/c3ccc([N+](=O)[O-])o3)C2=O)cc1    > 54.9 µM

Input line: // TGI lookup, key: CCOC(=O)c1c(NC(=S)Nc2ccccc2)sc2c1CCN(C)C2
Output line: > 100 µM

Input line: // TGI lookup, key: O=S1Nc2cccc(C(F)(F)F)c2S1 (stereo not given)
Output line: > 100 µM

Input line: // TGI lookup, key: COc1ccc(/C=C/c2onc3c(=O)n(C)nc(-c4ccccc4)c23)cc1
Output line: > 100 µM

Input line: // TGI lookup, key: c1ccc(CSC(SCc2ccccc2)c2cccc3ccccc23)cc1
Output line: > 10 µM

Input line: // TGI lookup, key: NCCCN(CCCCN(CCCN)Cc1ccccc1)Cc1ccccc1
Output line: > 100 µM

Input line: // TGI lookup, key: CC1OC(n2cc(F)c(=O)[nH]c2=O)CCC1=O (stereo not given)
Output line: > 100 µM

Input line: // TGI lookup, key: Cc1ccc(-c2cc(C(=O)Nc3ccc(S(=O)(=O)N4CCCCC4)cc3)[nH]n2)c(O)c1
Output line: > 100 µM

Input line: // TGI lookup, key: Cc1ccc(C(=O)NC2CCCCC2)cc1N=NN(C)C
Output line: > 100 µM

Input line: // TGI lookup, key: COc1ccc(O)c(/C=N\Nc2ccccc2)c1
Output line: > 100 µM

Every entry's value here was drawn from PubChem BioAssay (NCI).
